Recorded pIC50, one value per entry.
# target_under_test: PI3Kα H1047R (T47D cells) (Homo sapiens, UniProt P42336, H1047R)
# Construct: endogenous in cells; host or cells: T47D cells
# Sequence (P42336 whole entry H1047R): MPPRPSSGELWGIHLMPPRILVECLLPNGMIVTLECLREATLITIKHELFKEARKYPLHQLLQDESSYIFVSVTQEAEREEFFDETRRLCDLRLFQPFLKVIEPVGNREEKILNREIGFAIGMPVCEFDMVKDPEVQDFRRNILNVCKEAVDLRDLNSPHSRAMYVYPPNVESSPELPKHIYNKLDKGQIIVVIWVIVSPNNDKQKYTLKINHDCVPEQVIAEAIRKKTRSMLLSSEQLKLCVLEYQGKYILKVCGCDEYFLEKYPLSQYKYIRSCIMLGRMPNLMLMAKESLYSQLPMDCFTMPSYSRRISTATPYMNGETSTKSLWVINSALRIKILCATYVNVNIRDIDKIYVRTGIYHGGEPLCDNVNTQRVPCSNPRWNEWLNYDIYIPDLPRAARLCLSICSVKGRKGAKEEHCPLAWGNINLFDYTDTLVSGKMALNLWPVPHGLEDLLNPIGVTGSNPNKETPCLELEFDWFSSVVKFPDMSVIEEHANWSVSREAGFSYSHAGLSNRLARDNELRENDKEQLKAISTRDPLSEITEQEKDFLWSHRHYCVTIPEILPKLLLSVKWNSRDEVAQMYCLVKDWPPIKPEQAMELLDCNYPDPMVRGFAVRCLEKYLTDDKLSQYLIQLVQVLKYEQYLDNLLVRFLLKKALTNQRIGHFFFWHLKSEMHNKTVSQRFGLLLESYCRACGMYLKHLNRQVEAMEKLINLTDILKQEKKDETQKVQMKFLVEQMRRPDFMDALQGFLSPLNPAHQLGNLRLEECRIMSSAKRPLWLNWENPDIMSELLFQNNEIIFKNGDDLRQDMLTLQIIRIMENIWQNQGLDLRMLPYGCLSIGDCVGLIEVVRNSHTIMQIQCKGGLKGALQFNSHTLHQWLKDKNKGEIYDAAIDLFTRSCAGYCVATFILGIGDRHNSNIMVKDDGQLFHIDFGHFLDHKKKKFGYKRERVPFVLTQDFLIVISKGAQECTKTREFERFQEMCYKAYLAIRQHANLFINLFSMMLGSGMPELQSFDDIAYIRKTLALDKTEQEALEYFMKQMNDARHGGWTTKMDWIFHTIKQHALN
# Sequence (P27986 whole entry partner): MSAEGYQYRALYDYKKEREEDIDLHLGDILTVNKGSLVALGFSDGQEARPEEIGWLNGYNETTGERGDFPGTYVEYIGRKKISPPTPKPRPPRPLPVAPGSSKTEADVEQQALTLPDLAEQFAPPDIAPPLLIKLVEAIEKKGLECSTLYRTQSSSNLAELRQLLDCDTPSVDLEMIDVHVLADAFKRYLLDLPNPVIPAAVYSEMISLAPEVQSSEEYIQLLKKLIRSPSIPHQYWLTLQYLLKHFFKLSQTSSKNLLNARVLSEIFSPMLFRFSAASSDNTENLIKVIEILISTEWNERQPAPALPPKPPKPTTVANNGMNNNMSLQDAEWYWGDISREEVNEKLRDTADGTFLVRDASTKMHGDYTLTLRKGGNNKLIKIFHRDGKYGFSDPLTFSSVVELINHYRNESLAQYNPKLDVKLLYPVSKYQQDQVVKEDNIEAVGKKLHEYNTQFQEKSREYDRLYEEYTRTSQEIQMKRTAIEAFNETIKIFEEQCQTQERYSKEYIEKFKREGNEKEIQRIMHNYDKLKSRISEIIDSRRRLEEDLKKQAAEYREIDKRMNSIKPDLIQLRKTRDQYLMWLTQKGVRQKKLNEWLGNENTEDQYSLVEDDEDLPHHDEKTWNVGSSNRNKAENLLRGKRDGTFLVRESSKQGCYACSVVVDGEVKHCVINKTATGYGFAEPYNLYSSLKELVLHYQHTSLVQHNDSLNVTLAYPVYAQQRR
# method_notes: PI3Kα cellular assay: pAKT HTRF in T47D cells after EGF stimulation
# Type: cell-based
# condition_set: T47D cells (PI3Kα H1047R), pAKT S473 HTRF, EGF stimulation
# Experimental: SKBR3 or T47D cells are seeded in DMEM containing 10% FBS at 25k cells/well into 96-well cell culture format. […] 384 well plate is left overnight at room temperature before reading HTRF on an Envision plate reader. ND denotes value not determined with that assay for the specified compound; • for T47D (H1047R) selectivity over SKBR3 (WT): A denotes >20-fold; B denotes 20-fold≥value>5-fold; C denotes ≤5-fold. […] ND denotes value not determined with that assay for the specified compound.
pIC50: −log10 of the molar value.

The examples below pair each entry with its known result.
Cc1cc([C@H](C)Nc2ccccc2-c2ccnnc2)c2nc(N3Cc4ccccc4C3)c(C)c(=O)n2c1 (single isomer, unassigned) [Compound 848]    > 7.00
Cc1cc([C@H](C)Nc2ccccc2C(=O)C(F)(F)F)c2nc(N3Cc4ccccc4C3)c(C)c(=O)n2c1 [Compound 958]    < 5.70
Cc1cc([C@@H](C)Nc2ccccc2C(=O)O)c2nc(-c3c(C)ccc4c3cnn4C)cc(=O)n2c1 [Compound 816]    < 5.70

Q. Reported pIC50 for Cc1cc(C(C)Nc2ccccc2C2(O)COC2)c2nc(-c3cccc(F)c3)c(C)c(=O)n2c1 (stereo not shown) [Compound 1389] : what is it?
A. 5.70 to 6.30

====

# target_under_test: PI3Kα H1047R (T47D cells) (Homo sapiens, UniProt P42336, H1047R)
# Construct: endogenous in cells; host or cells: T47D cells
# method_notes: PI3Kα cellular assay: pAKT HTRF in T47D cells after EGF stimulation
# Format: cell-based
# condition_set: T47D cells (PI3Kα H1047R), pAKT S473 HTRF, EGF stimulation
# Protocol: SKBR3 or T47D cells are seeded in DMEM containing 10% FBS at 25k cells/well into 96-well cell culture format. […] 384 well plate is left overnight at room temperature before reading HTRF on an Envision plate reader. ND denotes value not determined with that assay for the specified compound; • for T47D (H1047R) selectivity over SKBR3 (WT): A denotes >20-fold; B denotes 20-fold≥value>5-fold; C denotes ≤5-fold. […] ND denotes value not determined with that assay for the specified compound.
pIC50: −log10 of the molar value.
Recorded pIC50, one value per entry.

Cc1cc(C(C)Nc2ccccc2C(=O)O)c2nc(-c3cc(C(N)=O)c4[nH]ccc4c3)cc(=O)n2c1 (centres unmarked)    5.70 to 6.30
Cc1cc([C@@H](C)Nc2ccccc2S(N)(=O)=O)c2nc(-c3cccc(C(F)F)c3)c(C)c(=O)n2c1    > 7.00
Cc1cc([C@@H](C)Nc2ccccc2C(=O)O)c2nc(-c3ccc4c(c3)c(C)nn4C)cc(=O)n2c1 (single isomer, unassigned)    < 5.70
Cc1cc(C(C)Nc2ccccc2-c2cc(O)no2)c2nc(-c3cccc(F)c3)c(C)c(=O)n2c1 (centres unmarked)    6.30 to 7.00
Cc1cc([C@@H](C)Nc2ccccc2C(=O)O)c2nc(-c3ccc(C(=O)N(C)C)cc3)cc(=O)n2c1    6.30 to 7.00

Q. Reported pIC50 for `Cc1cc([C@H](C)Nc2ccccc2C(=O)O)c2nc(-c3ccc(C#N)nc3)c(C)c(=O)n2c1` : what is it?
A. < 5.70

Q. Next: `Cc1cc([C@H](C)N[C@@H](C(=O)O)c2ccccc2)c2nc(N3CCOCC3)cc(=O)n2c1`
A. < 5.70

====

# target_under_test: PI3Kα H1047R (T47D cells) (Homo sapiens, UniProt P42336, H1047R)
# Construct: endogenous in cells; host or cells: T47D cells
# method_notes: PI3Kα cellular assay: pAKT HTRF in T47D cells after EGF stimulation
# Format: cell-based
# condition_set: T47D cells (PI3Kα H1047R), pAKT S473 HTRF, EGF stimulation
Recorded IC50, one value per entry.

C=CC(=O)Nc1cc(C(C)Nc2ccccc2C(=O)O)c2nc(N3Cc4ccccc4C3)cc(=O)n2c1 (centres unmarked)    > 2000 nM
Cc1cc([C@H](C)Nc2ccccc2C(N)=O)c2nc(-c3cccc(C#N)c3)c(C)c(=O)n2c1    > 2000 nM
Cc1cc([C@@H](C)Nc2ccccc2-c2ccnnc2)c2nc(-c3ccc4c(C)cn(C)c4c3)c(C)c(=O)n2c1    > 2000 nM
Cc1cc([C@@H](C)Nc2ccccc2C(=O)O)c2nc(-c3cnc(C4CCOCC4)nc3)c(C)c(=O)n2c1    100 to 500 nM
Cc1cc([C@@H](C)Nc2ccccc2C(=O)O)c2nc(-c3ccc4ccnn4c3)c(C)c(=O)n2c1    < 100 nM

Q. Reported IC50 for `Cc1cc([C@H](C)Nc2ccccc2C(=O)O)c2nc(-c3ccc(-c4ccc5oc(=O)n(C)c5c4)c(C)c3)c(C)c(=O)n2c1` : what is it?
A. < 100 nM

Q. Next: `Cc1cc([C@@H](C)Nc2ccccc2C(=O)O)c2nc(-c3ccc(F)c(C)c3)c(C)c(=O)n2c1`
A. < 100 nM

Q. Next: Cc1cc([C@@H](C)Nc2ccccc2C(=O)O)c2nc(-c3ccc(Cl)cc3)c(C)c(=O)n2c1 (single isomer, unassigned)
A. < 100 nM

Q. Next: `Cc1cc([C@H](C)Nc2ccccc2S(=O)(=O)O)c2nc(-c3ccc(C4CC4)cc3)c(C3CC3)c(=O)n2c1`
A. > 2000 nM

Q. Next: `CC(=O)N1CCC(c2ccc(-c3nc4c([C@H](C)Nc5ccccc5C(=O)O)cc(C)cn4c(=O)c3C)cc2)CC1`
A. > 2000 nM

Q. Next: `Cc1cc([C@H](C)Nc2ccccc2C(=O)O)c2nc(-c3cnc(C)c(Cl)c3)cc(=O)n2c1`
A. > 2000 nM

Q. Next: Cc1cc([C@@H](C)Nc2ccccc2C(=O)O)c2nc(-c3cccc(C(F)F)c3)c(C)c(=O)n2c1 [Compound 1077]
A. 500 to 2000 nM

Q. Next: `Cc1cc([C@@H](C)Nc2ccccc2C(=O)O)c2nc(-c3ccnc(C)n3)c(C)c(=O)n2c1`
A. > 2000 nM

Q. Next: Cc1cc([C@@H](C)Nc2ccccc2S(N)(=O)=O)c2nc(N3C[C@@H](C)O[C@@H](C)C3)cc(=O)n2c1 (single isomer, unassigned)
A. < 100 nM

====

# target_under_test: PI3Kα H1047R (T47D cells) (Homo sapiens, UniProt P42336, H1047R)
# Construct: endogenous in cells; host or cells: T47D cells
# method_notes: PI3Kα cellular assay: pAKT HTRF in T47D cells after EGF stimulation
# Format: cell-based
# condition_set: selectivity T47D (H1047R) over SKBR3 (WT), pAKT HTRF
reported_property: T47D pAKT S473 HTRF IC50 (H1047R): T47D (H1047R) selectivity over SKBR3 (WT)

Cc1cc([C@@H](C)Nc2ccccc2)c2nc(-c3cc(C)c4oc(=O)[nH]c4c3)cc(=O)n2c1 (single isomer, unassigned) [Compound 29]    C (C denotes ≤5-fold)
Cc1cc(C(C)Nc2ccc(C#N)cc2C(=O)O)c2nc(N3CCOCC3)cc(=O)n2c1 (stereo not shown) [Compound 329]    C (C denotes ≤5-fold)
COc1cc(-c2nc3c([C@@H](C)Nc4ccccc4C(=O)O)cc(C)cn3c(=O)c2C)ccn1 [Compound 1101]    A (A denotes >20-fold)
Cc1cc([C@@H](C)Nc2ccccc2C(=O)O)c2nc(-c3cccc(F)c3)c(C(C)C)c(=O)n2c1 [Compound 1277]    A (A denotes >20-fold)

====

# target_under_test: PI3Kα H1047R (T47D cells) (Homo sapiens, UniProt P42336, H1047R)
# Construct: endogenous in cells; host or cells: T47D cells
# method_notes: PI3Kα cellular assay: pAKT HTRF in T47D cells after EGF stimulation
# Format: cell-based
# condition_set: selectivity T47D (H1047R) over SKBR3 (WT), pAKT HTRF
reported_property: T47D pAKT S473 HTRF IC50 (H1047R): T47D (H1047R) selectivity over SKBR3 (WT)

The examples below pair each entry with its known result.
Cc1cc(C(C)Nc2ccccc2C(N)=O)c2nc(-c3cnc(C)c(Cl)c3)c(C)c(=O)n2c1 (stereo not drawn)    A (A denotes >20-fold)
CC1=CN2C(=O)C(C)C(c3ccc(CCC(C)(C)C)cc3)N=C2C([C@H](C)Nc2ccccc2C(=O)O)=C1 (stereo partly drawn)    C (C denotes ≤5-fold)
Cc1cc(C(C)Nc2ccccc2C(N)=O)c2nc(-c3ccncc3)cc(=O)n2c1 (single isomer, unassigned) [Compound 439]    C (C denotes ≤5-fold)
Cc1cc(C(C)Nc2ccccc2C(=O)O)c2nc(C3CCCN(CC(F)F)C3)c(C)c(=O)n2c1 (stereo not drawn)    A (A denotes >20-fold)
Cc1cc(C(C)Nc2ccccc2-c2ccnnc2)c2nc(-c3cccnc3)c(C)c(=O)n2c1 (stereo not drawn)    A (A denotes >20-fold)

Q. Reported T47D pAKT S473 HTRF IC50 (H1047R): T47D (H1047R) selectivity over SKBR3 (WT) for Cc1cc(C(C)Nc2c(C(=O)O)cnn2C)c2nc(N3CCOCC3)cc(=O)n2c1 (stereo not drawn) : what is it?
A. C (C denotes ≤5-fold)

Q. Next: `Cc1cc([C@H](C)Nc2ccccc2C(=O)O)c2nc(-c3cnc(C)c(Cl)c3)cc(=O)n2c1`
A. C (C denotes ≤5-fold)
